Target: T1, CD27 protein (His-tagged, Sino Biological Inc. 10039-H08B1) (human, UniProt P26842 20-192)
T1 construct: bought; coated onto ELISA plates; also called human CD27; recombinant protein; not shown: His tag
T1 sequence (looked up): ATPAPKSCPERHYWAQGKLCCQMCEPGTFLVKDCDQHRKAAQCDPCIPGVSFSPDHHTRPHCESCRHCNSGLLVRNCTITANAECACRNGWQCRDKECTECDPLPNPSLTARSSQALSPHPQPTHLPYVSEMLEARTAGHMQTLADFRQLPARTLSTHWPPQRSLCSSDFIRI
Assay: ELISA on coated His-tagged CD27; further: test concentration or dose not given here
Measured quantity: ELISA [abs. corr.] (abs. corr.)
Dear colleague, please return just the value in abs. corr., with no unit written.

- Binder: "P018.S.07.A.G02 (antibody, V domains shown, V regions on human Ig constant parts; also called AB27_129) VH: QSVEESGGRLVTPGTPLTLTCTVSGFSLSSYDMSWVRQAPGKGLEWIGWITTDGGTDYASWAKGRFTVSKASTTVDLKITSPTTEDTATYFCARGYASFNLWGQGTLVTVSS VL: AQVLTQTPSSVSAAVGGTVTINCQSSQSVLSNSYLAWYQQKPGQPPKLLIYAASSLASGVPSRFKGSGSGTQFTLTISDLESDDAATYYCQGTDYSGGWYVAFGGGTEVVVK"
  ELISA [abs. corr.] / abs. corr.: 3.33
- Binder: "P018.S.07.A.A05 (antibody, V domains shown, V regions on human Ig constant parts; also called AB27_114) VH: QEHLEESGGDLVKPGASLTLTCKASGFDLSINVMCWVRQAPGKGPEWIVCIDNGDGSTYYASWVNGRFTISKTSSTTVTLQMTSLTAADTATYFCARPGTFTYGGNTYPGSFVLWGPGTLVTVSS VL: AFELTQTPSSVEAAVGGTVTINCQASQSISNALAWYQQKPGQPPKLLIYTASNLASGVPSRFKGSGSGTQFTLTISDLESADAATYYCQNYYVNIIGIGFGGGTEVVVK"
  ELISA [abs. corr.] / abs. corr.: 3.44
- Binder: "P018.S.07.A.C06 (antibody, V domains shown, V regions on human Ig constant parts; also called AB27_121) VH: QSVEESGGRLVTPGTPLTLTCTVSGFSLNHYHMCWVRQAPGKGLEYIGRIDNSGYIVYASWAKGRFTISKTSTTVDLKITSPTTADTATYFCGKYYSGGSYDLWGQGTLVTVSS VL: AQVLTQTASSVSAAVGGTVTISCQSSQSVWNNNWLAWYQQKPGQPPKLLIYETSKLASGVPSRFKGSGSGTQFTLTISGVQSDDAATYYCQGEFSCSSDDCNAFGGGTEVVVK"
  ELISA [abs. corr.] / abs. corr.: 3.29
- Binder: "P018.S.06.A.F03 (antibody, V domains shown, V regions on human Ig constant parts; also called AB27_108) VH: QSLEESGGDLVRPGASLTLTCTASGLSFSDRYWISWVRQAPGKGLEWIASIYTGSDGVADYATWAKGRVTISKTSSTTVTLQMTSLTAADTATYFCARDREYGSNTGVYSLWGPGTLVTVSS VL: DVLMTQTPSSVSPAVGGTVTIKCQASQNIYSNLAWYQQKPGQRPKLLVYDASNLEYGVPSRFKGSGSGTEYTLTISDLESADAANYYCQCTYYGNNYITFGGGTEVVVR"
  ELISA [abs. corr.] / abs. corr.: 3.16

Continue with the binder presented below.
Record P018.S.10.A.A04 (antibody, V domains shown, V regions on human Ig constant parts; also called AB27_164) VH: QSVEESGGRLVTPGTPLTLTCTVSGIDLSSNVMTWVRQAPGKGLEWIGYIYASATTYYATWAKGRFTISKTSTTVDLKMTSPTTEDTATYFCARERLASRGDYSDLWGQGTLVTVSS VL: AYDMTQTPASVEAAVGGTVTIKCQASESIGDLLAWYQQKPGQPPKLLIYDASDLASGVPSRFKGSGSGTEFTLTISGVESADAATYYCQQGYTTTSNVDNIFGGGTEVVVK . Reported ELISA [abs. corr.]: 3.13
